- target or system: full length active recombinant SYK enzyme (Homo sapiens, UniProt P43405)
- Construct: full length active recombinant SYK enzyme (Millipore, Calif.); purchased Millipore
- test protocol: Inhibition of Syk tyrosine phosphorylation activity (LANCE TR-FRET kinase assay)
- Type: biochemical
- condition parameters: 1 nM active SYK enzyme, 550 nM SYK-substrate, 100 μM ATP, 1 hour at room temperature
Overview of reported IC50 across a group of compounds:

smiles input: N#Cc1cccc(Nc2nc(N[C@@H]3CCCC[C@@H]3N)nnc2C(N)=O)c1
IC50: 1 to 10 nM

Ask: Answer with the recorded IC50 of `CC[C@@H](Nc1nnc(C(N)=O)c(Nc2cccc(C)c2)n1)C(N)=O` only.
Reply: 10 to 100 nM

Ask: Answer with the recorded IC50 of `NC(=O)c1nnc(N[C@@H]2CCOC[C@@H]2N)nc1Nc1ccccc1` only.
Reply: 10 to 100 nM

Ask: Answer with the recorded IC50 of `Cn1ccc2c(Nc3nc(N[C@@H]4CCCC[C@@H]4N)nnc3C(N)=O)ccnc21` only.
Reply: < 1 nM
